Quick reference for protein stability index among some sequences
test system: Saccharomyces cerevisiae; assay: protein stability index of tFT-peptide fusion in deletion strain of DAS1 (PSI (0-1 scale)); higher = more stable (slower turnover)
Just the number, please, no unit attached.

The following sequences have reported results that may help.
LKILRQKLNHQN    0.676
VRGAVGGWRLVGI    0.679
LVVYLSCVACKN    0.0769
LKILRQKMNHFN    0.675
PDKRNHDIKLLN    0.606
VNGAVGGWRLVG    0.68

Look up protein stability index with Saccharomyces cerevisiae for this sequence: CTCCGYKFRTNN
0.676

// same read-out, input: PSLAASFWRVAG
0.671

====

system: Saccharomyces cerevisiae; assay: protein stability index of tFT-peptide fusion (C-terminal peptide) (PSI (0-1 scale)); higher = more stable (slower turnover); details: genetic background: das1 deletion; temperature: 37 C
measured_parameter: protein stability index
// return a plain number; no unit text

Given FPGPPSPPPSYF , state its recorded protein stability index.
0.766

Subsequent entry: KFFRSWVLTSPA
0.616

Next record, please: SVLVWFLVFLVW
0.373

How about this sequence: ARGVAAAFVSGF
0.746

What about VYKSTHKIYILT ?
0.677

Field entry: VYTVGFVCWLVY
0.346

Same lookup for TWGGGRVSLGGG , please.
0.418

====

system: Saccharomyces cerevisiae; assay: protein stability index of tFT-peptide fusion (C-terminal peptide) (PSI (0-1 scale)); higher = more stable (slower turnover); conditions: genetic background: wild type; temperature: 30 C
Recorded protein stability index by entry

Completed entries (count: 3):
VAAASPLFSRID    0.712
LFTRWSILFKLF    0.132
LFSFFVFFFLLD    0.435

Fill in: protein stability index of GGSGQGAGAVWG is ___
0.63

What do we get for WSRGGVLGVCCG ?
0.536

Quick one: IFAVLVSGSFFF
0.429

Try the sequence PLPRLSYRPPTL
0.663

Same question for PPSRPLSVLPPP please.
0.686

Next sequence: PPPRPGFCLFLP
0.674

And LLRPPARPPHPR ?
0.746

How about this sequence: LWAQRASPPWYQ
0.606

Same read-out for SNRSVININIRI ?
0.616

Similarly, KKKKKKKKKKPK ?
0.611

Ok, now PLPPPGPLPSPP
0.736

Next record, please: EALTLLGAFYLP
0.694

====

test system: Saccharomyces cerevisiae; test: protein stability index of tFT-peptide fusion (C-terminal peptide) (PSI (0-1 scale)); higher = more stable (slower turnover); conditions: genetic background: wild type; temperature: 30 C
Label label 1 for high-side protein stability index (at or above 0.7) and label 0 for low-side protein stability index (below it).

Below, 5 sequences whose answers are already recorded.
PANRGPPTPFSP    label 1
RQPPPRSPPSYL    label 1
CTHYFSNSCLLR    label 0
ALSLPPRLRTFY    label 0
ARRGHNCAAVFL    label 0

Confirm if protein stability index reported for the sequence PPPDPPLSPPPP is 0.7 or above.
label 0

Moving on to CVCLWCFLVWAR
label 0

Query RFIGVVTRLRRC next
label 0

Same question, DGVAILPLVRIS this time
label 0

Again, but for LNTVALIRIVVS
label 0

Another sequence to check: VSCLDLCFVISR
label 0

Also check EADRAPSGGAGN
label 0

Again, but for ETNSSSEFPLNF
label 1
